Please go through the items and note down their Ki.
- test-system: mCA XIII (Mus musculus, UniProt Q9D6N1)
- Construct: gene Ca13; recombinant, obtained in-house
- Sequence (Q9D6N1 whole entry): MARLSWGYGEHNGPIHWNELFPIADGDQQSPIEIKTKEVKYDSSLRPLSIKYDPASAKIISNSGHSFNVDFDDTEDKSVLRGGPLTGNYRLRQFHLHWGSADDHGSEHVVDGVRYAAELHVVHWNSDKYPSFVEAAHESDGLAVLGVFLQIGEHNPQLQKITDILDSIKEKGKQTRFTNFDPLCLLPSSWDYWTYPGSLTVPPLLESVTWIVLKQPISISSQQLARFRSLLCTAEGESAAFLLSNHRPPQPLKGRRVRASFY
- measurement-protocol: stopped-flow CO2 hydration
- Assay type: biochemical
- experimental-context: read-out: KI (μM)^a^,^b / mCA XIII
Answers are plain numbers, in µM.

Example results:
{"compound": "NS(=O)(=O)c1ccccc1 [compound 2, benzenesulphonamide]", "Ki / µM": 0.1}
{"compound": "O=S(=O)(O)c1ccccc1 [compound 1, benzenesulphonic acid]", "Ki / µM": 8.72}

Kindly consider the entry below.
May I ask what Ki has been recorded for NNS(=O)(=O)c1ccccc1 [compound 3, N-amino sulphonamide 3] ?
5.96

* * *

Please go through the items and note down their Ki.
- test-system: hCA III (Homo sapiens)
- Construct: gene CA3; recombinant, obtained in-house
- Sequence (P07451 2-260): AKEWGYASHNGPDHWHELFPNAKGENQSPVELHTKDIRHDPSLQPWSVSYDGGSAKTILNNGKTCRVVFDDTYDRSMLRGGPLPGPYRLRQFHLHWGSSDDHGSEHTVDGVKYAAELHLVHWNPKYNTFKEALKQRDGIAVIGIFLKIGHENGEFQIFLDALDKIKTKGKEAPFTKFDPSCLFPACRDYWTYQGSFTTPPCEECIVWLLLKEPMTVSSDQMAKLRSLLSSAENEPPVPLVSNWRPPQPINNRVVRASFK
- measurement-protocol: stopped-flow CO2 hydration
- Type: biochemical
- experimental-context: read-out: KI (μM)^a^,^b / hCA III
Answers are plain numbers, in µM.

Example results:
{"molecule": "CONS(=O)(=O)c1ccccc1 [compound 5, N-methoxysulphonamide 5]", "test-system": "hCA III (Homo sapiens)", "Ki [µM]": 5.72}
{"molecule": "O=C(NO)c1ccccc1 [compound 9, hydroxamic acid 9]", "test-system": "hCA III (Homo sapiens)", "Ki [µM]": 44.8}
{"molecule": "O=S(=O)(O)c1ccccc1", "test-system": "hCA III (Homo sapiens)", "Ki [µM]": 6.63}
{"molecule": "NNS(=O)(=O)c1ccccc1 [compound 3, N-amino sulphonamide 3]", "test-system": "hCA III (Homo sapiens)", "Ki [µM]": 6.28}
{"molecule": "NS(=O)(=O)c1ccccc1 [compound 2, benzenesulphonamide]", "test-system": "hCA III (Homo sapiens)", "Ki [µM]": 2.26}
{"molecule": "CONC(=O)c1ccccc1 [compound 10, methylated hydroxamate 10]", "test-system": "hCA III (Homo sapiens)", "Ki [µM]": 37.3}

Batch: Ki for all items listed.
1. NNC(=O)c1ccccc1 [compound 8, hydrazide 8]
2. O=C(O)c1ccccc1
3. O=S(=O)(NO)c1ccccc1 [compound 4, N-hydroxysulphonamide 4]
4. NC(=O)c1ccccc1 [compound 7, carboxamide 7]

1. 40.2
2. 35.7
3. 4.42
4. 35.7

* * *

Please go through the items and note down their Ki.
- test-system: hCA VII (Homo sapiens)
- Construct: gene CA7; recombinant, obtained in-house
- Sequence (P43166 whole entry): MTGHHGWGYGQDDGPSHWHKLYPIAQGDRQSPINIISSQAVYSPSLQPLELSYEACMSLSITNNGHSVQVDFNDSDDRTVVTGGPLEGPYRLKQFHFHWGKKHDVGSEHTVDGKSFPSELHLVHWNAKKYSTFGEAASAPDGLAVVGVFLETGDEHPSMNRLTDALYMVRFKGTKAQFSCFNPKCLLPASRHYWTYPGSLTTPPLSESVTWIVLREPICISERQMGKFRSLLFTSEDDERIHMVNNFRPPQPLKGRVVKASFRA
- measurement-protocol: stopped-flow CO2 hydration
- Format: biochemical
- experimental-context: read-out: KI (μM)^a^,^b / hCA VII
One number for each entry, in µM.

{"molecule": "O=S(=O)(O)c1ccccc1", "endpoint-name": "Ki", "measured-value": 7.93}
{"molecule": "CONS(=O)(=O)c1ccccc1 [compound 5, N-methoxysulphonamide 5]", "endpoint-name": "Ki", "measured-value": 9.56}
{"molecule": "O=C(O)c1ccccc1", "endpoint-name": "Ki", "measured-value": 92.2}

Kindly consider the entry below.
May I ask what Ki has been recorded for CONC(=O)c1ccccc1 [compound 10, methylated hydroxamate 10] ?
72.2

* * *

- test-system: hCA IV (Homo sapiens)
- Construct: gene CA4; recombinant, obtained in-house
- Sequence (P22748 19-284): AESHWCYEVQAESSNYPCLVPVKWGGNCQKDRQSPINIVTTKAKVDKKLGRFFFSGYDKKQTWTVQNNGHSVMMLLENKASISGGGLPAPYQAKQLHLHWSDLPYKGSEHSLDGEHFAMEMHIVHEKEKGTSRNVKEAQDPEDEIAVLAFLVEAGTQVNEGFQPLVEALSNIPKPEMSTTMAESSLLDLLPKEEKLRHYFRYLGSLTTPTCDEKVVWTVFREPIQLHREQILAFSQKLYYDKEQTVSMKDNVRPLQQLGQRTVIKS
- measurement-protocol: stopped-flow CO2 hydration
- Format: biochemical
- experimental-context: read-out: KI (μM)^a^,^b / hCA IV
- Description: stopped-flow CO2 hydration on hCA IV
Please go through the items and note down their Ki.
Answers are plain numbers, in µM.

Example results:
{"compound": "O=C(NO)c1ccccc1 [compound 9, hydroxamic acid 9]", "test-system": "hCA IV (Homo sapiens)", "endpoint-name": "Ki", "measured-value": 84.7}
{"compound": "O=S(=O)(O)c1ccccc1", "test-system": "hCA IV (Homo sapiens)", "endpoint-name": "Ki", "measured-value": 9.1}
{"compound": "CONC(=O)c1ccccc1 [compound 10, methylated hydroxamate 10]", "test-system": "hCA IV (Homo sapiens)", "endpoint-name": "Ki", "measured-value": 111}

Batch: Ki for all items listed.
1. NNC(=O)c1ccccc1 [compound 8, hydrazide 8]
2. NS(=O)(=O)c1ccccc1 [compound 2, benzenesulphonamide]
3. O=C(O)c1ccccc1
4. CONS(=O)(=O)c1ccccc1 [compound 5, N-methoxysulphonamide 5]
5. NC(=O)c1ccccc1 [compound 7, carboxamide 7]
6. NNS(=O)(=O)c1ccccc1 [compound 3, N-amino sulphonamide 3]
7. O=S(=O)(NO)c1ccccc1 [compound 4, N-hydroxysulphonamide 4]

1: 335; 2: 7.96; 3: 434; 4: 39.5; 5: 381; 6: 78.4; 7: 24.6

* * *

- test-system: hCA II (Homo sapiens)
- Construct: gene CA2; recombinant, obtained in-house
- measurement-protocol: stopped-flow CO2 hydration
- Format: biochemical
- experimental-context: read-out: KI (μM)^a^,^b / hCA II
Please go through the items and note down their Ki.
Numbers only, in µM.

Example results:
{"compound": "NC(=O)c1ccccc1 [compound 7, carboxamide 7]", "Ki, µM": 93.2}
{"compound": "CONS(=O)(=O)c1ccccc1 [compound 5, N-methoxysulphonamide 5]", "Ki, µM": 8.96}
{"compound": "CONC(=O)c1ccccc1 [compound 10, methylated hydroxamate 10]", "Ki, µM": 341}
{"compound": "NNS(=O)(=O)c1ccccc1 [compound 3, N-amino sulphonamide 3]", "Ki, µM": 5.31}
{"compound": "O=C(O)c1ccccc1", "Ki, µM": 30.1}
{"compound": "O=S(=O)(NO)c1ccccc1 [compound 4, N-hydroxysulphonamide 4]", "Ki, µM": 5.47}

Batch: Ki for all items listed.
1. O=S(=O)(O)c1ccccc1
2. NNC(=O)c1ccccc1 [compound 8, hydrazide 8]

[9.3, 231]

* * *

- test-system: hCA I (Homo sapiens)
- Construct: gene CA1; recombinant, obtained in-house
- Sequence (P00915 2-261): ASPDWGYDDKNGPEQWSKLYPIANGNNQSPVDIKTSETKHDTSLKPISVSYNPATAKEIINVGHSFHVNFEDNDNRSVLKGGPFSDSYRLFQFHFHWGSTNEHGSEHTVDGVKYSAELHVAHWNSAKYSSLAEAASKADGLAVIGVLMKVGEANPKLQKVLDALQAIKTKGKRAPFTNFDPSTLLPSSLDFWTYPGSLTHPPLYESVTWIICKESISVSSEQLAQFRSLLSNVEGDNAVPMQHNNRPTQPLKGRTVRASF
- measurement-protocol: stopped-flow CO2 hydration
- Assay type: biochemical
- experimental-context: read-out: KI (μM)^a^,^b / hCA I
Please go through the items and note down their log10(Ki).
A value of 2 here means Ki of 100 in µM, since values are log10.

Example results:
{"compound": "O=S(=O)(O)c1ccccc1", "log10(Ki)": 0.94}
{"compound": "NC(=O)c1ccccc1 [compound 7, carboxamide 7]", "log10(Ki)": 2.51}

Batch: log10(Ki) for all items listed.
1. CONC(=O)c1ccccc1 [compound 10, methylated hydroxamate 10]
2. O=S(=O)(NO)c1ccccc1 [compound 4, N-hydroxysulphonamide 4]
3. NNC(=O)c1ccccc1 [compound 8, hydrazide 8]

[1.86, 0.44, 1.96]

* * *

- test-system: hCA VB (Homo sapiens)
- Construct: gene CA5B; recombinant, obtained in-house
- measurement-protocol: stopped-flow CO2 hydration
- Assay type: biochemical
- experimental-context: read-out: KI (μM)^a^,^b / hCA VB
Define the label as 1.0 when Ki is strictly less than 80 µM and as 0.0 in all remaining cases.

Would you please look over these solved cases?
{"molecule": "NC(=O)c1ccccc1 [compound 7, carboxamide 7]", "test-system": "hCA VB (Homo sapiens)", "classification": 0.0}
{"molecule": "NNS(=O)(=O)c1ccccc1 [compound 3, N-amino sulphonamide 3]", "test-system": "hCA VB (Homo sapiens)", "classification": 0.0}

Here's an entry: CONS(=O)(=O)c1ccccc1 [compound 5, N-methoxysulphonamide 5] . Is its Ki below 80 µM?
1.0

Here's an entry: CONC(=O)c1ccccc1 [compound 10, methylated hydroxamate 10] . Is its Ki below 80 µM?
1.0

Here's an entry: O=C(O)c1ccccc1 . Is its Ki below 80 µM?
1.0

* * *

- test-system: hCA VB (Homo sapiens, UniProt Q9Y2D0)
- Construct: gene CA5B; recombinant, obtained in-house
- Sequence (Q9Y2D0 34-317): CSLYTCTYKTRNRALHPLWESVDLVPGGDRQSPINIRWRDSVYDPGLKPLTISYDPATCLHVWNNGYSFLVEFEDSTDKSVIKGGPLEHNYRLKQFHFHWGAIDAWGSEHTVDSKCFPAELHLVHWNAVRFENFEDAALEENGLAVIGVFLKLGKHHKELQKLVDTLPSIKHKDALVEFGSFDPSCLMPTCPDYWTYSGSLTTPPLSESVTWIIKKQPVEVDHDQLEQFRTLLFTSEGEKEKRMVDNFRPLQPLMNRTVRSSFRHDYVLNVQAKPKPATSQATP
- measurement-protocol: stopped-flow CO2 hydration
- Assay type: biochemical
- experimental-context: read-out: KI (μM)^a^,^b / hCA VB
Define the label as condition met when Ki is strictly less than 70 µM and as condition not met in all remaining cases.

Would you please look over these solved cases?
{"compound": "O=C(NO)c1ccccc1 [compound 9, hydroxamic acid 9]", "classification": "condition met"}
{"compound": "O=S(=O)(O)c1ccccc1", "classification": "condition not met"}
{"compound": "NS(=O)(=O)c1ccccc1 [compound 2, benzenesulphonamide]", "classification": "condition met"}

Query compound follows.
Here's an entry: NNC(=O)c1ccccc1 [compound 8, hydrazide 8] . Is its Ki below 70 µM?
condition not met

* * *

- test-system: hCA VI (Homo sapiens, UniProt P23280)
- Construct: gene CA6; recombinant, obtained in-house
- Sequence (P23280 18-308): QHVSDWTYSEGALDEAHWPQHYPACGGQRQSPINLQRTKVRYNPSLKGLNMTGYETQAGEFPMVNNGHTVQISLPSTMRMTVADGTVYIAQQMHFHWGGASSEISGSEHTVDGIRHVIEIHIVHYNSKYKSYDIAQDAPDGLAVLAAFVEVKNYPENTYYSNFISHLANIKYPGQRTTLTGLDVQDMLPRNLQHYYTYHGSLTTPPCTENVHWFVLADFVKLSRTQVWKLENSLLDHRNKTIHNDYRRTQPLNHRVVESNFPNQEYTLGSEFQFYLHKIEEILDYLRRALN
- measurement-protocol: stopped-flow CO2 hydration
- Type: biochemical
- experimental-context: read-out: KI (μM)^a^,^b / hCA VI
Define the label as Criterion met when Ki is strictly less than 80 µM and as Criterion not met in all remaining cases.

Would you please look over these solved cases?
{"compound": "O=S(=O)(O)c1ccccc1 [compound 1, benzenesulphonic acid]", "classification": "Criterion met"}
{"compound": "O=S(=O)(NO)c1ccccc1 [compound 4, N-hydroxysulphonamide 4]", "classification": "Criterion not met"}
{"compound": "NNS(=O)(=O)c1ccccc1 [compound 3, N-amino sulphonamide 3]", "classification": "Criterion met"}

Query compound follows.
Here's an entry: O=C(O)c1ccccc1 [compound 6, benzoic acid] . Is its Ki below 80 µM?
Criterion not met
